Reported pKi is given for each of the following molecules.
MEASURED_TARGET: TrkB (Rattus norvegicus)
Construct: expressed in transfected cells; host or cells: HEK293T
MEASUREMENT_DESCRIPTION: biochemical
Assay type: binding
Where a name gives a salt, the structure may show the parent alone.
Recall that pKi is obtained by taking minus log10 of the concentration measured in molar.

Observe how each entry below is paired with its result.
MOLECULE: CNC1(c2ccccc2Cl)CCCCC1=O (stereo not drawn) [ketamine, Ketamine hydrochloride]
MEASURED_TARGET: TrkB (Rattus norvegicus)
pKi: 4.68

MOLECULE: CN(C)CCc1c[nH]c2cccc(O)c12
MEASURED_TARGET: TrkB (Rattus norvegicus)
pKi: 8.17

Shifting focus to the molecule that follows.
Suppose we examine the molecule CCN(CC)C(=O)C1C=C2c3cccc4[nH]cc(c34)CC2N(C)C1 (stereo not drawn) [LSD, lysergic acid diethylamide] ; what pKi value has been reported?
8.47

* * *

MEASURED_TARGET: UniProt:P15209
Sequence (P15209 32-821): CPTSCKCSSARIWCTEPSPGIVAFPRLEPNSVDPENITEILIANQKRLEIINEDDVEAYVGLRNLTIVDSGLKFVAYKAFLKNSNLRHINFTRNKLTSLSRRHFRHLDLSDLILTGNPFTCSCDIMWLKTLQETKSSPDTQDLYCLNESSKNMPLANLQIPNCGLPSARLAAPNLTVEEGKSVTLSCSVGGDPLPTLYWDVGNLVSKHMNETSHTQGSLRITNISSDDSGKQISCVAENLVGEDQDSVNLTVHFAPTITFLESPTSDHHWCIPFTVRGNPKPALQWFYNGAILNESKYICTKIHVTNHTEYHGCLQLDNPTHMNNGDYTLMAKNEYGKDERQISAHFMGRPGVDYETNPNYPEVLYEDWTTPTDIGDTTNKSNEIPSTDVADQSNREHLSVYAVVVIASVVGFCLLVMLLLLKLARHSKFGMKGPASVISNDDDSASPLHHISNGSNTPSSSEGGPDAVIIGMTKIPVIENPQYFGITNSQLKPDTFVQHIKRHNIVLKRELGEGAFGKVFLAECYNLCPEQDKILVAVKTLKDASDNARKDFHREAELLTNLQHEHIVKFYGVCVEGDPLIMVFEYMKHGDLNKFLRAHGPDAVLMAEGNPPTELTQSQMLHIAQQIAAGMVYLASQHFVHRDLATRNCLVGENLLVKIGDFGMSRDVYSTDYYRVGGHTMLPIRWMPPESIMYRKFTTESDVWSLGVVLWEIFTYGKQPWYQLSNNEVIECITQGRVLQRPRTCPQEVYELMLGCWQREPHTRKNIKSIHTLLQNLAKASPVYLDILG
MEASUREMENT_LABEL: pKd
Recall that pKd is obtained by taking minus log10 of the concentration measured in molar.

# value lookup — system UniProt:P15209, readout pKd, item CCN(CC)C(=O)C1C=C2c3cccc4[nH]cc(c34)CC2N(C)C1 (stereo not shown) [LSD, lysergic acid diethylamide]
9.37

* * *

MEASURED_TARGET: human TrkB (Homo sapiens)
Construct: GFP
Sequence (Q16620 32-822): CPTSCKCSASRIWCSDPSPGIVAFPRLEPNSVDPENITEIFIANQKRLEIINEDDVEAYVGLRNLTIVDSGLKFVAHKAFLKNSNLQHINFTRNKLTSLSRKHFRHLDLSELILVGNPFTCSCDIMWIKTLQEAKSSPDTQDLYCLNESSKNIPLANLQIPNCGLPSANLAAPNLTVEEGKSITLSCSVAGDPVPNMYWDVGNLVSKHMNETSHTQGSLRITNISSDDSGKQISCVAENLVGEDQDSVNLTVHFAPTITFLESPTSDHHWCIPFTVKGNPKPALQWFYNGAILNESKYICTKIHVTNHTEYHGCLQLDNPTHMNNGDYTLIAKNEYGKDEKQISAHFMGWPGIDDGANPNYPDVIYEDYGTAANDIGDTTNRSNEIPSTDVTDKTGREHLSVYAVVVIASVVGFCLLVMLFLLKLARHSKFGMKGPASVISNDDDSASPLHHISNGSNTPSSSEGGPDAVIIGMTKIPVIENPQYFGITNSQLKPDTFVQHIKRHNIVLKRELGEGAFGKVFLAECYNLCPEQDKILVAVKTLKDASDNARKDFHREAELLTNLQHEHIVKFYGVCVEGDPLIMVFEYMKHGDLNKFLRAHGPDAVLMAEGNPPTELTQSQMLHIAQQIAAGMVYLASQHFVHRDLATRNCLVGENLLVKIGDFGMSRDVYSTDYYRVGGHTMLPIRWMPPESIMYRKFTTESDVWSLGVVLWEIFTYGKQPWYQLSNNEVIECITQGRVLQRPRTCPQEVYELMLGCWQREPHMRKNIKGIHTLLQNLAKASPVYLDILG
MEASUREMENT_DESCRIPTION: ^3H-LSD saturation binding to TrkB immunoprecipitated from HEK293T lysates
MEASUREMENT_LABEL: Kd (nM)
# number only, unit nM dropped from output

# value lookup — system human TrkB (Homo sapiens), readout Kd, item CCN(CC)C(=O)C1C=C2c3cccc4[nH]cc(c34)CC2N(C)C1 (stereo not shown) [LSD, lysergic acid diethylamide]
0.93

* * *

MEASURED_TARGET: TrkB (Rattus norvegicus, UniProt Q63604)
Construct: expressed in transfected cells; host or cells: HEK293T
Sequence (Q63604 32-821): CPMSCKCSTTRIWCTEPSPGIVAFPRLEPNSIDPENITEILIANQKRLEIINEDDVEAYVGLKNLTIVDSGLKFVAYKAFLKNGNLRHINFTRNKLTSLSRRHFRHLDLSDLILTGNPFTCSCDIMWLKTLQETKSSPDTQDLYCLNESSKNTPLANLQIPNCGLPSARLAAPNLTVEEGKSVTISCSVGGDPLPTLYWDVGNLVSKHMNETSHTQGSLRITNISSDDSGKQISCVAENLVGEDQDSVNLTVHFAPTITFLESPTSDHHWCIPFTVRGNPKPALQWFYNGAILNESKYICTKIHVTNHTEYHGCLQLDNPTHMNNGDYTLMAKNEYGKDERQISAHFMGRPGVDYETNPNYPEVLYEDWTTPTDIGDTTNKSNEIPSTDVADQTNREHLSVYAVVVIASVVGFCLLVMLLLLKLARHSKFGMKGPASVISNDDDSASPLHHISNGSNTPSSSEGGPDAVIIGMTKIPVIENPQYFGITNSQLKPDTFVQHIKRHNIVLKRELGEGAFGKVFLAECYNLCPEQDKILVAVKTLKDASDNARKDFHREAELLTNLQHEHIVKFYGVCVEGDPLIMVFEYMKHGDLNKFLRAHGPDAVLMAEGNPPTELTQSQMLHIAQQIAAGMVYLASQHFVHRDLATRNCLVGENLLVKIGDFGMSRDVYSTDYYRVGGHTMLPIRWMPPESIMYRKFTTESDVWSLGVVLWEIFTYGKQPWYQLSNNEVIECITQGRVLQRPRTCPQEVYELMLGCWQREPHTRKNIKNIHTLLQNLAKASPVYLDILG
MEASUREMENT_DESCRIPTION: biochemical
Assay type: binding
RUN_CONDITIONS: ext fig 1f; competition curve; n=5
Counter-ions that a name gives are not always drawn.
Reported Bmax (specific binding with Hill slope, best-fit) is given for each of the following compounds.
Just the number.

Suppose we examine the compound N[C@@]1(c2ccccc2Cl)CCC[C@@H](O)C1=O [R,R-HNK, 2R,6R-hydroxynorketamine] ; what Bmax (specific binding with Hill slope, best-fit) value has been reported?
107.6

Suppose we examine the compound O=C(c1ccc(F)cc1)C1CCN(CCn2c(=O)[nH]c3ccccc3c2=O)CC1 [ketanserin, ketanserin (+)-tartrate] ; what Bmax (specific binding with Hill slope, best-fit) value has been reported?
96.24

Suppose we examine the compound CNC1(c2ccccc2Cl)CCCCC1=O (stereo not shown) [ketamine, Ketamine hydrochloride] ; what Bmax (specific binding with Hill slope, best-fit) value has been reported?
98.59

Suppose we examine the compound COc1cccc([C@H](O)C2CCN(CCc3ccc(F)cc3)CC2)c1OC ; what Bmax (specific binding with Hill slope, best-fit) value has been reported?
94.18

* * *

MEASURED_TARGET: rat TrkB (WT) (Rattus norvegicus)
MEASUREMENT_DESCRIPTION: ^3H-LSD saturation binding to TrkB immunoprecipitated from HEK293T lysates
MEASUREMENT_LABEL: Kd

Suppose we examine the molecule CCN(CC)C(=O)C1C=C2c3cccc4[nH]cc(c34)CC2N(C)C1 (stereo not shown) [LSD, lysergic acid diethylamide] ; what Kd value has been reported?
0.656 nM

* * *

MEASURED_TARGET: TrkB S440A (Rattus norvegicus, UniProt Q63604, S440A)
Sequence (Q63604 32-821 S440A): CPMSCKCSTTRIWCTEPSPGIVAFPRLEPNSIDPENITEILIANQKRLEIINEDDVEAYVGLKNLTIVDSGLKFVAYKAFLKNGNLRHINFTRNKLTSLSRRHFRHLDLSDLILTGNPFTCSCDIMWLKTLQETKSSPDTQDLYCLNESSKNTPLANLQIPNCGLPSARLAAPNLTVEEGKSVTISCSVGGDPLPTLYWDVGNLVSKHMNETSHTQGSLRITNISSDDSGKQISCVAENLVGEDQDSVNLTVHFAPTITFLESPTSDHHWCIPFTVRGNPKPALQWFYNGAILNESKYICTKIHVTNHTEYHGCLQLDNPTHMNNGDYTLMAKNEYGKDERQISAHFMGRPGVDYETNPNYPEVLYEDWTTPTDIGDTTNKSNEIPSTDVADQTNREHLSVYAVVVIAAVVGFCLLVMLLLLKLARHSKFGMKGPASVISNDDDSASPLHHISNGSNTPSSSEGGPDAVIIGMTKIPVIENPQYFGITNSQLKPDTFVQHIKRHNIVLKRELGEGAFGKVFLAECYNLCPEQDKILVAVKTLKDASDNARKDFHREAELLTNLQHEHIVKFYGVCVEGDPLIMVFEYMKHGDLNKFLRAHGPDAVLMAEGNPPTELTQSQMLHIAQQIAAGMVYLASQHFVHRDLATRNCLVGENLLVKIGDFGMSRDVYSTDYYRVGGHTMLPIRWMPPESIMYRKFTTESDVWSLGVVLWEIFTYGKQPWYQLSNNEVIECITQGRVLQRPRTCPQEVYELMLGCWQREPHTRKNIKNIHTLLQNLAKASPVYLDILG
MEASUREMENT_DESCRIPTION: ^3H-LSD saturation binding, TrkB mutant
MEASUREMENT_LABEL: pKd
Recall that pKd is obtained by taking minus log10 of the concentration measured in molar.

Suppose we examine the molecule CCN(CC)C(=O)C1C=C2c3cccc4[nH]cc(c34)CC2N(C)C1 (stereo not shown) [LSD, lysergic acid diethylamide] ; what pKd value has been reported?
9.15

* * *

MEASURED_TARGET: TrkB Y433F (Rattus norvegicus, UniProt Q63604, Y433F)
Construct: expressed in transfected cells; host or cells: HEK293T
Sequence (Q63604 32-821 Y433F): as the sequence (Q63604 32-821) above, with Y402F counted along it
MEASUREMENT_DESCRIPTION: ^3H-LSD saturation binding, TrkB mutant
RUN_CONDITIONS: Kd, ^3H-LSD saturation, Y433F
Description: Binding assays were performed as previously described with minor modifications. […] Samples from mouse embryo (E18) brains were also lysed, vortexed, sonicated and centrifuged for binding assays. Plates were then washed with PBS. […] For the competition binding assays with biotinylated R,R-HNK, the amino-biotinylation of R,R-HNK was performed using a commercial kit (Thermo Scientific, EZ-Link NHS-PEG4 Biotinylation Kit, 21455) and the reaction monitored by MS. […]
MEASUREMENT_LABEL: Kd (nM)
# number only, unit nM dropped from output

Suppose we examine the compound CCN(CC)C(=O)C1C=C2c3cccc4[nH]cc(c34)CC2N(C)C1 (stereo not shown) [LSD, lysergic acid diethylamide] ; what Kd value has been reported?
24.6

* * *

MEASURED_TARGET: TrkB V437A (Rattus norvegicus, UniProt Q63604, V437A)
Construct: expressed in transfected cells; host or cells: HEK293T
Sequence (Q63604 32-821 V437A): as the sequence (Q63604 32-821 S440A) above, with V406A, A409S counted along it
MEASUREMENT_DESCRIPTION: ^3H-LSD saturation binding, TrkB mutant
RUN_CONDITIONS: Kd, ^3H-LSD saturation
MEASUREMENT_LABEL: pKd
Recall that pKd is obtained by taking minus log10 of the concentration measured in molar.

Suppose we examine the compound CCN(CC)C(=O)C1C=C2c3cccc4[nH]cc(c34)CC2N(C)C1 (stereo not shown) [LSD, lysergic acid diethylamide] ; what pKd value has been reported?
7.59

* * *

MEASURED_TARGET: TrkB (Rattus norvegicus, UniProt Q63604)
Construct: expressed in transfected cells; host or cells: HEK293T
MEASUREMENT_DESCRIPTION: biochemical
Format: binding
RUN_CONDITIONS: ext fig 1f; competition curve; n=5
Structures can show the parent of a compound that is named as a salt.
Reported h (Hill slope, best-fit) is given for each of the following molecules.
Just the number.

MOLECULE: CNC1(c2ccccc2Cl)CCCCC1=O (stereo not shown) [ketamine, Ketamine hydrochloride]
h (Hill slope, best-fit): -0.5468

Suppose we examine the molecule N[C@@]1(c2ccccc2Cl)CCC[C@@H](O)C1=O [R,R-HNK, 2R,6R-hydroxynorketamine] ; what h (Hill slope, best-fit) value has been reported?
-0.8819

* * *

MEASURED_TARGET: TrkB (Rattus norvegicus, UniProt Q63604)
Construct: expressed in transfected cells; host or cells: HEK293T
MEASUREMENT_DESCRIPTION: biochemical
Assay type: binding
RUN_CONDITIONS: displacement of ^3H-LSD; read-out: Ki
MEASUREMENT_LABEL: Ki
Returns: string containing the numeric result and its unit.

Suppose we examine the compound N[C@@]1(c2ccccc2Cl)CCC[C@@H](O)C1=O [R,R-HNK, 2R,6R-hydroxynorketamine] ; what Ki value has been reported?
166 nM
